Target: HIV-1 RT Y188L (Human immunodeficiency virus type 1 group M subtype B, UniProt P03366, Y787L)
Construct: an HIV RT clone pKRT2 containing only the RT p66 gene regulated by the lac operon/trc promoter
Assay: Reverse transcriptase (RT) assay, Y188L mutant
Could you please report measured pIC50 for the items listed next?
Numbers only, as −log10 of the molar value.

[[record]]
inputsmiles = "CCN1c2ncc(CCOc3cc[n+]([O-])c4ccccc34)cc2C(=O)Nc2c(C)cc(Cl)nc21"
assayendpoint = "pIC50"
resultnumber = 5.64


Return reported pIC50 values for all items listed beneath this line.
1. CCN1c2ncc(CCOc3ccnc4ccccc34)cc2C(=O)N(C)c2ccc(Cl)nc21
2. CCN1c2ncc(CCOc3cc[n+]([O-])c4ccccc34)cc2C(=O)Nc2c(C)cc(F)nc21

6.59
5.47

All figures here come from patent US20020028807A1.
